Biological target: T1, 4H370-bN
T1 chain: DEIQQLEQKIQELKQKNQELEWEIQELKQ
Assay: two-hybrid library CCNG1;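 further: natural log of median RNA to DNA barcode read ratio; higher means stronger binding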
Rule for this label: 1 (yes) means interaction score is less than -0.7; 0 (no) means interaction score is at least -0.7.

Binder	Group
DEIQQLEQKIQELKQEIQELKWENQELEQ [4H331-bN]	0 (no)
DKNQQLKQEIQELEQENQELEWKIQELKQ [4H3606-bN]	0 (no)

Prompt line: In the record for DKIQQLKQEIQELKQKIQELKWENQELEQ [4H2667-bN] , is interaction score less than -0.7?
Response line: 0 (no)

Prompt line: In the record for DEIQQLEQKIQELKQKNQELEWEIQELKQ [4H370-bN] , is interaction score less than -0.7?
Response line: 0 (no)

Prompt line: In the record for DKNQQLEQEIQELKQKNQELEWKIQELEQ [4H3189-bN] , is interaction score less than -0.7?
Response line: 1 (yes)

Prompt line: In the record for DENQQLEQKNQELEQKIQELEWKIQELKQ [4H1446-bN] , is interaction score less than -0.7?
Response line: 0 (no)

Prompt line: In the record for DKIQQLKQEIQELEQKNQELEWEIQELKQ [4H2610-bN] , is interaction score less than -0.7?
Response line: 1 (yes)

Prompt line: In the record for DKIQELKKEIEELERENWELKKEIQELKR [4H2586-bH] , is interaction score less than -0.7?
Response line: 0 (no)

Prompt line: In the record for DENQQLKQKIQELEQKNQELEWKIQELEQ [4H1845-bN] , is interaction score less than -0.7?
Response line: 1 (yes)
